tested on: SW-620; assay: NCI in vitro 60-cell drug screen (SRB assay); format: cell-based; settings: SW-620 (Colon cancer); 10^-5 molar concentration; 48 hours
METRIC NAME: Growth percent

{"columns": ["STRUCTURE NOTATION", "TESTED SYSTEM", "VALUE OBSERVED"],
 "data": [
  ["O=c1c2cc(Cl)ccc2sc2c(O)nc3ccccc3c12", "SW-620", "101.39%"],
  ["COc1nc2ccccc2c2c(=O)c3cc(Cl)ccc3sc12", "SW-620", "103.05%"],
  ["O=c1c2cc(Cl)ccc2sc2c(N3CCN(Cc4ccccc4)CC3)nc3ccccc3c12", "SW-620", "93.08%"],
  ["O=c1c2cc(Cl)ccc2sc2c(N3CCN(c4ccccc4)CC3)nc3ccccc3c12", "SW-620", "100.20%"],
  ["CN1CCN(c2nc3ccccc3c3c(=O)c4cc(Cl)ccc4sc23)CC1", "SW-620", "95.50%"],
  ["O=c1c2ccc(Cl)cc2sc2c(Cl)nc3ccccc3c12", "SW-620", "99.06%"],
  ["O=c1c2cc(Cl)ccc2sc2c(N3CCOCC3)nc3ccccc3c12", "SW-620", "96.18%"],
  ["O=c1c2cc(Cl)ccc2sc2c(N3CCN(CCO)CC3)nc3ccccc3c12", "SW-620", "88.11%"],
  ["O=C(O)c1c(Sc2ccc(Cl)cc2)c(O)nc2ccccc12", "SW-620", "96.92%"],
  ["CN(C)c1nc2ccccc2c2c(=O)c3cc(Cl)ccc3sc12", "SW-620", "105.18%"]
]}

The measured values listed here are drawn from patent EP3002287B1.
